PROTOCOL_DETAILS: Plasma AMG 232 pharmacokinetics (HPLC-MS, non-compartmental analysis)
Assay type: in vivo, human
CONDITION_SUMMARY: human, plasma, oral, 60 mg, Day 1, dose escalation, 60 mg (n = 2–4); read-out: Cmax, mean (SD)
OBSERVED_PROPERTY: Cmax (ng/mL)
Numbers only, in ng/mL.

Summary for this molecule, CC(C)[C@@H](CS(=O)(=O)C(C)C)N1C(=O)[C@@](C)(CC(=O)O)C[C@H](c2cccc(Cl)c2)[C@H]1c1ccc(Cl)cc1 : Cmax is 527

###

PROTOCOL_DETAILS: Plasma AMG 232 pharmacokinetics (HPLC-MS, non-compartmental analysis)
Format: in vivo, human
CONDITION_SUMMARY: human, plasma, oral, 60 mg, Day 7, dose escalation, 60 mg (n = 2–4); read-out: Cmax, mean (SD)
OBSERVED_PROPERTY: Cmax (ng/mL)
One number for each entry, in ng/mL.

Summary for this compound, CC(C)[C@@H](CS(=O)(=O)C(C)C)N1C(=O)[C@@](C)(CC(=O)O)C[C@H](c2cccc(Cl)c2)[C@H]1c1ccc(Cl)cc1 : Cmax is 457

Values compiled from paper PMC7211202.
